# targetSystem: activated human MMP13 (human, UniProt P45452 104-471)
# assayDetails: cell-based or functional assay
hey, just use TRUE if measured IC50, human fluorogenic collagen assay is less than 20 nM, otherwise FALSE

query: In plain terms, does C0101PMP516G08 (VHH, Profile 2 Nanobody; also called C0101516G08) VHH: DVQLVESGGGLVQPGGSLRLSCAGSGSIFRINVMAWYRQAPGKQRELVAAITSGGTTNYADSVKGRFTISRDNSKNTVYLQMNSLRPEDTAVYYCYADIGWPYVLDYDFWGQGTLVTVSS come in under 20 nM for IC50, human fluorogenic collagen assay?
result: TRUE

query: Given the entry C0101PMP520C04 (VHH, Profile 2 Nanobody) VHH: DVQLVESGGGLVQPGGSLRLSCAASGRTFSSYAMGWFRQAPGKEREFVAAISWSGGSTYYSDSVKGRFTISRDNSKNTVYLQMNSLRPEDTAVYYCTAARGGVAGTDGPLGDYNYWGQGTLVTVSS , would its reported IC50, human fluorogenic collagen assay be below 20 nM?
result: FALSE

query: Hello, I'm reviewing records and need to know if IC50, human fluorogenic collagen assay of C0101PMP529C12 (VHH, Profile 2 Nanobody; also called C0101529C12) VHH: DVQLVESGGGLVQPGGSLRLSCVASGSIFSINAMGWYRQAPGKQRELVAAISSGGSTYYADSVKGRFTISRDNSKNTVYLQMNSLRPEDTAVYYCNAAVDASRGLPYELYYYWGQGTLVTVSS is below 20 nM. Could you check?
result: TRUE

query: A record lists C0101PMP529G11 (VHH, Profile 2 Nanobody) VHH: DVQLVESGGGLVQPGGSLRLSCAASGSIFRINAMGWYRQAPGKQRELVAAIISGGTTYYADSVKGRFTISRDNSKNTVYLQMNSLRPEDTAVYYCYADIGWPYVLDYDFWGQGTLVTVSS . Is its IC50, human fluorogenic collagen assay below 20 nM?
result: TRUE

query: Input C0101PMP519E04 (VHH, Profile 2 Nanobody) VHH: DVQLVESGGGLVQPGGSLRLSCVASGPTFSDYAMGWFRQAPGKEREFVAAISWSGGSTYYADSVKGRFTISRDNSKNTVYLQMNSLRPEDTAVYYCTAARGGGYRASGGPLSEYNYWGQGTLVTVSS ; condition: IC50, human fluorogenic collagen assay strictly below 20 nM. Does it hold?
result: FALSE

query: In the record for C0101PMP062C02 (VHH, Profile 2 Nanobody; also called C0101062C02) VHH: EVQLVESGGALVRPGGSLRLSCAASGFAFSAAYMSWVRQAPGRGLEWVSSISDDGSKTYYADSVKGRFTISRDNAKNTVYLQMNNLKPDDTAVYYCNTGYGATTTRPGRYWGQGTQVTVSS , is IC50, human fluorogenic collagen assay less than 20 nM?
result: TRUE

query: In the record for C0101PMP521F02 (VHH, Profile 2 Nanobody) VHH: DVQLVESGGGLVQPGGSLRLSCVASGLTFSSYAMGWFRQAPGKEREFVAAISWSGGRTYYADSVKGRFTISRDNSKNTVYLQMNSLRPEDTAVYYCTAARGPGSVGPSEEYNYWGQGTLVTVSS , is IC50, human fluorogenic collagen assay less than 20 nM?
result: FALSE

query: Would you kindly verify if IC50, human fluorogenic collagen assay of C0101PMP063F01 (VHH, Profile 2 Nanobody) VHH: EVQLVESGGGLVQPGGSLRLSCSASTGIFRINTMGWHRQAPGKQRDLVATFTSDDNTKYADSVKGRFTISRDNAENTVYLQMNDLKPEDTAVYYCHATTVMYDSNSPDYWGQGTQVTVSS is strictly less than 20 nM?
result: FALSE
